# tested system: T1, 4H2937-bH
# T1 chain: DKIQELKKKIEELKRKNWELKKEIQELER
# test description: two-hybrid library CCNG1;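 further: natural log of median RNA to DNA barcode read ratio; higher means stronger binding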
measured attribute: interaction score

[I] DKIQELKKENEELEREIWELEKKNQELKR [4H2696-bH]
[II] DEIQELEKEIEELERENWELEKENQELER [4H19-bH]
Hi team, can someone confirm which has the larger interaction score: I or II ? Thanks. Respond using the label that marks the chosen record. I
(I: 1.47, II: 0.634)

[1] DKIQELKKKIEELKREIWELEKENQELER [4H2883-bH]
[2] DKIQELKKKIEELKRKNWELKKEIQELER [4H2937-bH]
Compare the recorded interaction score of 1 and 2 ; state which is larger. Pick one; state its label. 1
(1: 0.674, 2: 0.307)

The reported measurements were obtained from paper PMC10397247.
